- Tested on: HL-60
- experiment: Antiproliferative activity against human HL60 cells after 72 hrs by MTT assay
- Assay type: functional, cell-based
- runConditions: HL-60, 72 h
assayEndpoint: IC50 (µM)

[1] COc1ccc(CCc2cccc3c2Nc2ccccc2S3(=O)=O)cc1
[2] COc1ccc(CCc2cccc3c(=O)c4ccccc4[nH]c23)cc1
query: Returns the identifier with the smallest measured IC50 among 1 and 2 . The response must carry the label of the picked entry.
result: 2
(2: 0.1 µM, 1: 1.65 µM)

====

- Tested on: CAL-33
- experiment: Antiproliferative activity against human CAL33 cells after 72 hrs by MTT assay
- Assay type: functional, cell-based
- runConditions: CAL-33, 72 h
assayEndpoint: IC50 (nM)
Write the answer as a number in nM, unit excluded.

COc1ccc(CCc2cccc3c(=O)c4ccccc4[nH]c23)cc1 | 37

As a next step, examine the compound that follows.
Form field IC50, entry `COc1ccc(CCc2cccc3c2Nc2ccccc2S3(=O)=O)cc1` : 627

====

- Tested on: CAL-33
- experiment: Cell cycle arrest in human CAL33 cells assessed as accumulation at G1 phase at 0.5 uM after 24 hrs flow cytometry
- Type: functional
assayEndpoint: Activity (%)
Report as a plain number; the unit % is understood.

CC[C@]1(O)C[C@H]2CN(CCc3c([nH]c4ccccc34)[C@@](C(=O)OC)(c3cc4c(cc3OC)N(C=O)[C@H]3[C@@](O)(C(=O)OC)[C@H](OC(C)=O)[C@]5(CC)C=CCN6CC[C@]43[C@@H]65)C2)C1 | 14.29
COc1ccc(CCc2cccc3c(=O)c4ccccc4[nH]c23)cc1 | 4
CC(=O)O[C@@]12CO[C@@H]1C[C@H](O)[C@@]1(C)C(=O)[C@H](O)C3=C(C)[C@@H](OC(=O)[C@H](O)[C@@H](NC(=O)OC(C)(C)C)c4ccccc4)C[C@@](O)([C@@H](OC(=O)c4ccccc4)[C@H]21)C3(C)C.O.O.O | 4.99

Could you now look at the following molecule, please?
Query `CCC1=C[C@@H]2CN(C1)Cc1c([nH]c3ccccc13)[C@@](C(=O)OC)(c1cc3c(cc1OC)N(C)[C@H]1[C@@](O)(C(=O)OC)[C@H](OC(C)=O)[C@]4(CC)C=CCN5CC[C@]31[C@@H]54)C2` yields Activity of 9.96

====

- Test system: CAL-33
- experiment: Cell cycle arrest in human CAL33 cells assessed as accumulation at sub-G1 phase at 0.5 uM after 24 hrs flow cytometry
- Type: functional
Activity overview
// units = %; emit number, no label

Record excerpt, results attached:
CCC1=C[C@@H]2CN(C1)Cc1c([nH]c3ccccc13)[C@@](C(=O)OC)(c1cc3c(cc1OC)N(C)[C@H]1[C@@](O)(C(=O)OC)[C@H](OC(C)=O)[C@]4(CC)C=CCN5CC[C@]31[C@@H]54)C2 | 24.44
CC[C@]1(O)C[C@H]2CN(CCc3c([nH]c4ccccc34)[C@@](C(=O)OC)(c3cc4c(cc3OC)N(C=O)[C@H]3[C@@](O)(C(=O)OC)[C@H](OC(C)=O)[C@]5(CC)C=CCN6CC[C@]43[C@@H]65)C2)C1 | 20.5
CC(=O)O[C@@]12CO[C@@H]1C[C@H](O)[C@@]1(C)C(=O)[C@H](O)C3=C(C)[C@@H](OC(=O)[C@H](O)[C@@H](NC(=O)OC(C)(C)C)c4ccccc4)C[C@@](O)([C@@H](OC(=O)c4ccccc4)[C@H]21)C3(C)C.O.O.O | 17.11

Proceed to the following item.
The value of Activity measured for the compound `COc1ccc(CCc2cccc3c(=O)c4ccccc4[nH]c23)cc1` turned out to be 9.84
